# Tested on: Fusarium linii KB-F1
# experiment description: Microbial growth curve screening, F. linii
# Type: cell-based
# conditions: 0.1% (w/v), OD at 560 nm, control 1.95
property name: ∆OD F. linii
Provide a numeric answer; units are not to be included.

# input GET /values?readout=∆OD F. linii&item= `Nc1ccccc1C(=O)/C=C/c1ccc(OCc2ccccc2)cc1`
# output 0.32

# input Now consider `Nc1ccc(C(=O)/C=C/c2ccc([N+](=O)[O-])cc2)cc1` .
# output 0.0

# input Now consider `Nc1ccc(C(=O)/C=C/c2ccc(C(=O)O)cc2)cc1` .
# output 0.99

# input Now consider `Nc1ccccc1C(=O)/C=C/c1ccc(C(=O)O)cc1` .
# output 0.37
